- TESTED_ON: human orexin 1 receptors (Homo sapiens (Human), UniProt O43613)
- Sequence (O43613 whole entry): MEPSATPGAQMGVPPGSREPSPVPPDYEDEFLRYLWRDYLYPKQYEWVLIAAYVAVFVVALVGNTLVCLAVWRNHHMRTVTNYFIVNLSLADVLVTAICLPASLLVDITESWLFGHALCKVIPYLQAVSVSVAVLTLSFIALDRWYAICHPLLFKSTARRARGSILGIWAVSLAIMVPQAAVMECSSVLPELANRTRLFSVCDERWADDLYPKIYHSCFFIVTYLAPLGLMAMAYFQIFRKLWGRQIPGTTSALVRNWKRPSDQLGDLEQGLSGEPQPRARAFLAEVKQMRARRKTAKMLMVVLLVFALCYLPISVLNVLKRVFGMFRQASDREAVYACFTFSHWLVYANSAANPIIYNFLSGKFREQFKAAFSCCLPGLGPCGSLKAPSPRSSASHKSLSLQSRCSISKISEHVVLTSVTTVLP
- ASSAY_NAME: Radioligand Binding Assay II ([3H]-SB649868 competition, cell membranes)
- CONDITION_INFO: read-out: binding II hOx1R Kd
OBSERVATION_TYPE: log10 Kd (log10 of the value in µM)
Units before log transform: µM; reported quantity: Kd; transform: log10.

Ask | Would you mind telling me what log10 Kd value was observed for COc1ccc([C@H](C)NC(=O)COc2cc(C)c3c(-c4ccoc4C)nn(C)c3n2)cc1 [Example 6.34] ?
Reply | -1.15

Ask | Would you mind telling me what log10 Kd value was observed for Cc1cc(OCC(=O)NC(C)c2ccc3c(ccn3C)c2)nc2c1c(C1CC1)nn2C (centres unmarked) [Example 6.59] ?
Reply | -1.15

Ask | Would you mind telling me what log10 Kd value was observed for Cc1ccc([C@H](C)NC(=O)COc2cc(C)c3c(-c4ncco4)nn(C)c3n2)cc1 [Example 4.2] ?
Reply | -2.00

----------
- TESTED_ON: human orexin 1 receptors (Homo sapiens (Human), UniProt O43613)
- ASSAY_NAME: Calcium Accumulation in Cells (FLIPR), antagonism of orexin A
- CONDITION_INFO: antagonism of orexin A, Cheng-Prusoff corrected; read-out: FLIPR hOx1R Ki
pKi: −log10 of the molar value.
Mark label 1 for reported pKi of 6 or greater; mark label 0 for anything smaller.

Ask | Would you say Cc1nn(C)c(C)c1C(C)NC(=O)COc1cc(C)c2c(C3CC3)nn(C)c2n1 (centres unmarked) shows pKi at minimum 6?
Reply | label 0

Ask | Would you say Cc1ccc([C@H](C)NC(=O)COc2cc(C)c3c(-c4ncco4)nn(C)c3n2)cc1 shows pKi at minimum 6?
Reply | label 1

----------
- TESTED_ON: human orexin 1 receptors (Homo sapiens (Human))
- ASSAY_NAME: Calcium Accumulation in Cells (FLIPR), antagonism of orexin A
- CONDITION_INFO: antagonism of orexin A, Cheng-Prusoff corrected; read-out: FLIPR hOx1R Ki
OBSERVATION_TYPE: pKi
Please treat pKi as minus the base-10 logarithm of the molar concentration.

MOLECULE	OBSERVATION_TYPE	REPORTED_RESULT
Cc1ccc([C@H](C)NC(=O)COc2cc(C(C)C)c3c(C4CC4)nn(C)c3n2)cc1	pKi	6.16
CC(NC(=O)COc1cc(C(F)(F)F)c2c(-c3ccccc3)nn(C)c2n1)c1cccnc1 (centres unmarked)	pKi	6.01
Cc1ccc([C@H](C)NC(=O)COc2cc(C)c3c(-c4cc(C)nn4C)nn(C)c3n2)cc1	pKi	6.17
COc1ccc(C(C)NC(=O)COc2cc(C)c3c(C4CC4)nn(C)c3n2)cn1 (centres unmarked)	pKi	5.83

Here is the next item to consider.
Ask | Would you mind telling me what pKi value was observed for COc1cccc([C@H](C)NC(=O)COc2cc(C)c3c(C4CC4)nn(C)c3n2)c1 ?
Reply | 6.13

----------
- TESTED_ON: human orexin 1 receptors (Homo sapiens (Human), UniProt O43613)
- ASSAY_NAME: Radioligand Binding Assay I ([125I]orexin A competition, cell membranes)
- CONDITION_INFO: read-out: binding I hOx1R Kd
The entries below are paired with their reported pKd.
Please treat pKd as minus the base-10 logarithm of the molar concentration.

COMPOUND	pKd
C[C@H](NC(=O)COc1cc(C(F)(F)F)c2c(-c3ccc(F)cc3)nn(C)c2n1)c1ccccc1 [Example 1.23]	6.88
Cn1nc(-c2ccccc2)c2c(C(F)(F)F)cc(OCC(=O)N[C@H]3CCc4ccccc43)nc21 [Example 1.3]	6.46
COc1ccc([C@H](C)NC(=O)COc2cc(C(F)(F)F)c3c(-c4ccccc4)nn(C)c3n2)cc1 [Example 1.4]	8.10

Ask | Missing value: pKd, human orexin 1 receptors (Homo sapiens (Human), UniProt O43613), entry COc1cccc(-c2nn(C)c3nc(OCC(=O)N[C@@H](C)c4ccccc4)cc(C(F)(F)F)c23)c1 [Example 1.19] . Fill in?
Reply | 7.00

Ask | Missing value: pKd, human orexin 1 receptors (Homo sapiens (Human), UniProt O43613), entry Cc1ccc(CNC(=O)COc2cc(C(F)(F)F)c3c(-c4ccccc4)nn(C)c3n2)cc1 [Example 1.32] . Fill in?
Reply | 5.58

Ask | Missing value: pKd, human orexin 1 receptors (Homo sapiens (Human), UniProt O43613), entry CC(Oc1cc(C(F)(F)F)c2c(-c3ccccc3)nn(C)c2n1)C(=O)N[C@@H](C)c1ccccc1 (single isomer, unassigned) [Example 1.73] . Fill in?
Reply | 6.65

Ask | Missing value: pKd, human orexin 1 receptors (Homo sapiens (Human), UniProt O43613), entry COc1ccccc1-c1nn(C)c2nc(OCC(=O)N[C@@H](C)c3ccccc3)cc(C(F)(F)F)c12 [Example 1.49] . Fill in?
Reply | 8.22

Source of measurements: patent US8742106B2
